# self-cleavage per record follows
B1: CPEB3 Ribozyme (parent)
chain: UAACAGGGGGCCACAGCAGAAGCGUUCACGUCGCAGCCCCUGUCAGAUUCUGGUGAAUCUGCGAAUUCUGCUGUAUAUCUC

Variants of: B1
Assay: self-cleavage, relative activity (ratio to wild type); higher = more cleavage; in vitro, sequencing
ENDPOINT_LABEL: self-cleavage

| VARIANT_DESIGNATION | ENDPOINT_LABEL | VALUE |
| --- | --- | --- |
| G6A A47U | self-cleavage | 0.32 |
| U31C U69C | self-cleavage | 0.31 |
| U41C A64G | self-cleavage | 0.77 |
| C40U U58A | self-cleavage | 0.3 |
| A57U U60C | self-cleavage | 0.27 |
| U25C U41C | self-cleavage | 0.28 |
| U31A A65G | self-cleavage | 0.36 |
| A35U U69C | self-cleavage | 0.23 |
| U49C C59U | self-cleavage | 0.09 |
| A2U A35U | self-cleavage | 0.49 |
| A28U G36A | self-cleavage | 0.08 |
| G30A A47G | self-cleavage | 0.41 |
| G6A A28U | self-cleavage | 0.4 |
| A13G U69C | self-cleavage | 0.32 |
| G52A A77U | self-cleavage | 0.98 |
| U31G U49C | self-cleavage | 0.26 |
| A45U C62A | self-cleavage | 0.17 |
| A13U U69C | self-cleavage | 0.71 |
| A13U A35U | self-cleavage | 0.75 |
| A20G U49G | self-cleavage | 0.28 |
| C39U U69C | self-cleavage | 0.32 |
| U60C U72G | self-cleavage | 0.39 |
| U25C A45U | self-cleavage | 0.28 |
| U26C A77G | self-cleavage | 0.46 |
| C68G U69C | self-cleavage | 0.27 |
| G33A U41A | self-cleavage | 0.41 |
| A47U U72A | self-cleavage | 0.35 |
| C29U A56U | self-cleavage | 0.16 |
| U31A U60G | self-cleavage | 0.2 |
| G19U U43A | self-cleavage | 0.29 |
| A35U G55C | self-cleavage | 0.47 |
| U26A U72G | self-cleavage | 0.83 |
| A20U A21G | self-cleavage | 0.23 |
| G6U U72C | self-cleavage | 0.37 |
| G16A U54C | self-cleavage | 0.66 |
| G9A A35G | self-cleavage | 0.66 |
| U48C U60C | self-cleavage | 0.26 |
| G7U A13G | self-cleavage | 0.18 |
| U72C U78A | self-cleavage | 1.2 |
| A56G C62U | self-cleavage | 0.31 |
| C14U G22C | self-cleavage | 0.18 |
| C12U A47U | self-cleavage | 0.83 |
| A15U U78C | self-cleavage | 0.7 |
| G24U A64G | self-cleavage | 0.18 |
| U1G C27A | self-cleavage | 0.43 |
| U26C U67G | self-cleavage | 0.21 |
